# targetSystem: T1, Extracellular domain of human PD1 (huPD1-ECD) (human, UniProt Q15116 25-169, biotinylated in the ligand inhibition assay (sites not given))
# T1 construct: Expressed with a hexahistidine tag or as Fc fusion; also called biotinylated PD-1
# T1 sequence (Q15116 25-169 limits assumed): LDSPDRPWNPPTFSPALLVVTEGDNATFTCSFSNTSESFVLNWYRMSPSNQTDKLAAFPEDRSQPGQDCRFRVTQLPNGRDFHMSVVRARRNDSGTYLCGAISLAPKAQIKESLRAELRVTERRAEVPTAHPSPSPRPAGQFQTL
# assayProcedure: SPR ProteOn, captured mAb, huPD1-ECD analyte
pKd: −log10 of the molar value.

{"binder": "PD1B183 (antibody, human IgG2, kappa, V domains shown, IgG2sigma/kappa; VH 43, VL 54; also called PD1H3/PD1L109) VH: QVQLVQSGAEVKKPGSSVKVSCKASGGTFSSYAISWVRQAPGQGLEWMGGIIPIFGTANYAQKFQGRVTITADESTSTAYMELSSLRSEDTAVYYCARPGLAAAYDTGSLDYWGQGTLVTVSS VL: EIVLTQSPATLSLSPGERATLSCRASQSVSSYLAWYQQKPGQAPRLLIKDASNRATGIPARFSGSGSGTDFTLTISSLEPEDFAVYYCQQRGYWPLTFGQGTKVEIKR", "pKd": 7.80}
{"binder": "PD1B187 (antibody, V domains shown, Tested as IgG2sigma; also called PD1H3/PD1L148) VH: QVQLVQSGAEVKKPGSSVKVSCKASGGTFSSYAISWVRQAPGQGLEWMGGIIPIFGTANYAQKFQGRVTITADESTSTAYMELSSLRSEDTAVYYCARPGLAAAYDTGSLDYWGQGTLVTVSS VL: EIVLTQSPATLSLSPGERATLSCRASQSVRSYLAWYQQKPGQAPRLLIYDASNRATGIPARFSGSGSGTDFTLTISSLEPEDFAVYYCQQRNYWPLTFGQGTKVEIK", "pKd": 8.28}
